Reported values of CC50 at 48 h for individual entries
Assay: in vitro
Conditions: chlorocebus sabaeus, Vero E6 (Vero C1008) cells, CC50
OBSERVABLE: CC50 at 48 h

{"columns": ["COMPOUND", "OBSERVABLE", "RESULT"],
 "data": [
  ["CO/N=C(\\C(=O)N[C@@H]1C(=O)N2C(C(=O)OC(C)OC(C)=O)=C(COC(N)=O)CS[C@H]12)c1ccco1 (stereo not given in full)", "CC50 at 48 h", "> 20 µM"],
  ["CCOC(=O)[C@H]1O[C@@H]1C(=O)N[C@@H](CC(C)C)C(=O)NCCC(C)C", "CC50 at 48 h", "> 100 µM"],
  ["CC(C)N1CCN(c2ccc(OCC3COC(Cn4cncn4)(c4ccc(Cl)cc4Cl)O3)cc2)CC1 (stereo not given)", "CC50 at 48 h", "~10 µM"],
  ["Cc1cccc(C)c1OCC(=O)N[C@@H](Cc1ccccc1)[C@@H](O)C[C@H](Cc1ccccc1)NC(=O)[C@H](C(C)C)N1CCCNC1=O", "CC50 at 48 h", "~33.7 µM"],
  ["COc1cc(C(=O)OCCN2CCN(CCCN3c4ccccc4Sc4ccc(Cl)cc43)CC2)cc(OC)c1OC [METOFENAZATE]", "CC50 at 48 h", "> 100 µM"]
]}

Recorded values, source ChEMBL document CHEMBL4651402.
